# mass density annotations
# condition: 298.2 K; 101.33 kPa; Liquid; Vibrating tube method
measurement.name: mass density (kg/m3)

compound="CCOC(=O)CCC(=O)OCC [diethyl butanedioate]" readout_units=kg/m3 val=1035.34
compound="CCOC(=O)CCCCCCCCC(=O)OCC [diethyl decanedioate]" readout_units=kg/m3 val=959.18
compound="CCCCCCCC(=O)OCC [ethyl octanoate]" readout_units=kg/m3 val=862.23
compound="CCCCC(=O)OCC [ethyl pentanoate]" readout_units=kg/m3 val=872.36
compound=CC(C)CCO readout_units=kg/m3 val=807.16
compound=O=CO readout_units=kg/m3 val=1214.1

---

# assay: refractive index (Na D-line) (dimensionless)
# condition: 298.2 K; 101.33 kPa; Liquid; Standard Abbe refractometry
measurement.name: refractive index

compound=CC(C)CCO measurement_name="refractive index" val=1.40528
compound="CCOC(=O)CCC(=O)OCC [diethyl butanedioate]" measurement_name="refractive index" val=1.41967
compound="CCCCC(=O)OCC [ethyl pentanoate]" measurement_name="refractive index" val=1.39841
compound="CCOC(=O)CCCCCCCCC(=O)OCC [diethyl decanedioate]" measurement_name="refractive index" val=1.43485
compound=O=CO measurement_name="refractive index" val=1.36939
compound="CCCCCCCC(=O)OCC [ethyl octanoate]" measurement_name="refractive index" val=1.41572
